- test summary: Quantitative highthroughput screen to assess conditional lethalithy of P12 Ichikawa cells grown in Human Plasma-Like Medium with dialyzed fetal bovine serum (HPLM+ds) (AID 1963879); further: nearly all actives have a fitted effect of over 35% in size
- condition notes: ATP luminescence, 48 h; viability; series mostly up to 45.8 µM
Inconclusive results are not listed. Active and inactive are the calls of the source. The call rests on the fitted dose curve; in most records, active means well fitted cell-killing curve with a large enough effect; inconclusive means small, poorly fitted or top-dose-only effect; inactive means flat fitted curve, though single readings scatter.
Returns: one label drawn from true for active, false for inactive

# substance smiles, qualitative label
records = [
    ("CCn1c(=O)c2c(nc(C=Cc3ccc(OC)c(OC)c3)n2C)n(CC)c1=O", "false"),
    ("CN1C(C(=O)Nc2ccccn2)=C(O)c2sccc2S1(=O)=O", "false"),
    ("NC(=O)c1ccc(-c2nc(-c3ccc4c(c3)OCO4)c(-c3ccccn3)[nH]2)cc1", "false"),
    ("COC(=O)Nc1nc2ccc(C(=O)c3ccccc3)cc2[nH]1", "true"),
    ("COc1ccc(-c2nc(N3CCOCC3)c3sc(CN(C)c4ncc(C(=O)NO)cn4)cc3n2)cn1", "true"),
]

Task: Recorded test outcome, item `CC(C)(C)c1cc(C(C)(C)C)c(NC(=O)c2c[nH]c3ccccc3c2=O)cc1O`
Output: false

Task: Queued: `Cc1ccc2c(c1)c1c(n2CCc2ccc(C)nc2)CCN(C)C1`
Output: false

Task: Queued: `Nc1nc(NCCNc2ncc(-n3ccnc3)c(-c3ccc(Cl)cc3Cl)n2)ccc1[N+](=O)[O-]`
Output: false

Task: Queued: `CCOC(=O)C=C[C@H](C[C@@H]1CCNC1=O)NC(=O)[C@@H](CC(=O)[C@@H](NC(=O)c1cc(C)on1)C(C)C)Cc1ccc(F)cc1`
Output: false

###

- test summary: Viability qHTS for spleen associated tyrosine kinase inhibitor (SYKi) drug resistant MV4-11 cells (AID 1963824); further: nearly all actives have a fitted effect of over 35% in size
- condition notes: SYKi-resistant MV4-11 viability, CellTiter-Glo, 72 h; series mostly up to 45 µM
- Procedure: Department of Medicine, Hematology/Oncology University Hospital Frankfurt, Germany. Trials have shown promising clinical activity of the selective SYK inhibitor entospletinib in patients with high expressing HOXA9/MEIS1 acute leukemias. […] 7; Detection; Luminescence; ViewLux plate reader (PerkinElmer). […] 1. Quantitative high-throughput screening (qHTS) of small molecule compounds was conducted on drug resistant SYKi MV4-11 cell line. […] 7. Luminescence was measured on a ViewLux plate reader (PerkinElmer).
Inconclusive results are not listed. Active and inactive are the calls of the source. The call rests on the fitted dose curve; in most records, active means well fitted cell-killing curve with a large enough effect; inconclusive means small, poorly fitted or top-dose-only effect, or effect the other way; inactive means no such curve, though single readings can be large or run the other way.
Returns: one label drawn from 1 (yes) for active, 0 (no) for inactive

# molecule, qualitative label
measured = [
    ("O=C(/C=C/c1ccc(O)c(O)c1)O[C@@H]1C[C@@](OC(=O)/C=C/c2ccc(O)c(O)c2)(C(=O)O)C[C@@H](O)[C@@H]1O", "0 (no)"),
    ("CCCCN(CCCC)CC(O)c1cc(Cl)cc2c1-c1ccc(Cl)cc1/C2=C/c1ccc(Cl)cc1 (stereo not given)", "1 (yes)"),
    ("COc1cc(C(=S)N2CCOCC2)ccc1O", "0 (no)"),
    ("C=C(C)C(O)COc1ccc(CC(=O)O)cc1 (stereo not given)", "0 (no)"),
]

Task: Recorded test outcome, item `O=C1N=C(O)S/C1=C\c1ccc2nccnc2c1`
Output: 1 (yes)

###

- test summary: Quantitative highthroughput screen to assess conditional lethalithy of NOMO1 cells grown in Human Plasma-Like Medium with dialyzed fetal bovine serum (HPLM+ds) (AID 1963878); further: nearly all actives have a fitted effect of over 35% in size; further: potency means the concentration at half of the fitted maximal effect;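 on viability: 100% = DMSO wells and 0% = empty wells on each plate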
- condition notes: NOMO1 AML cells in HPLM+ds, CellTiter-Glo viability, 48 h; series mostly up to 45.8 µM
Inconclusive results are not listed. The source made the active and inactive calls. Calls come from the whole dose curve; as a rule, active = well fitted cell-killing curve with a large enough effect; inconclusive = small, poorly fitted or top-dose-only effect, or effect the other way; inactive = no such curve, though single readings can be large or run the other way.
endpoint: Potency

Worked set:
# compound, endpoint, assay value
rows = [
    ("CCOc1cc(N)c(Cl)cc1C(=O)NCC1CN(Cc2ccc(F)cc2)CCO1 (centres undefined)", "Potency", "inactive"),
    ("C[C@@H]1[C@H](C)CC[C@]2(C(=O)O)CC[C@]3(C)C(=CC[C@@H]4[C@@]5(C)CC[C@H](O)C(C)(C)[C@H]5CC[C@]43C)[C@@H]12", "Potency", "inactive"),
    ("CCN(CC)CCCC(C)Nc1nc(C)cc(Nc2ccc3nc(C)cc(N)c3c2)n1 (centres undefined)", "Potency", "inactive"),
    ("C[C@@H]1CCO[C@H]2Cn3cc(C(=O)NCc4ccc(F)cc4F)c(=O)c(O)c3C(=O)N12", "Potency", "inactive"),
    ("N#Cc1ccnc(Nc2cc(C3CCN(C4COC4)CC3)cc(N3CCC(F)(F)C3)n2)c1", "Potency", "14.8 µM (active)"),
    ("Cc1cc(OCCCS(C)(=O)=O)cc(C)c1-c1cccc(COc2ccc3c(c2)OC[C@H]3CC(=O)O)c1", "Potency", "inactive"),
    ("Nc1ccn([C@@H]2O[C@H](CO)[C@@H](O)[C@H]2O)c(=O)n1", "Potency", "0.0166 µM (active)"),
    ("C1COC(NC(C2CC2)C2CC2)=N1", "Potency", "inactive"),
]

// next item, Potency requested
Task: Entry `NCCOc1cc(C(=O)Nc2cc(OCCN)c3ccccc3n2)nc(C(=O)Nc2cc(OCCN)c3ccccc3n2)c1` has what Potency?
Output: inactive

###

- test summary: Quantitative highthroughput screen to assess conditional lethalithy of P12 Ichikawa cells grown in RPMI1640 with untreated serum (RPMI+s) (AID 1963881); further: nearly all actives have a fitted effect of over 35% in size;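 on viability: 100% = DMSO wells and 0% = empty wells without cells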
- condition notes: ATP luminescence, 48 h; viability; series mostly up to 45.8 µM
Records with an inconclusive call do not appear. Active and inactive are the calls of the source. Calls come from the whole dose curve; as a rule, active = well fitted cell-killing curve with a large enough effect; inconclusive = small, poorly fitted or top-dose-only effect; inactive = flat fitted curve, though single readings scatter.
Returns: one label drawn from y = active, n = inactive

# compound, qualitative label
records = [
    ("CCNC(=O)CCCC=CC[C@@H]1[C@H](C=CC(O)CCc2ccccc2)[C@@H](O)C[C@@H]1O (stereo partly drawn)", "n"),
    ("CC=CC(=O)N(CC)c1ccccc1C", "n"),
    ("O=C1C(Cl)=C(NCCN2CCOCC2)C(=O)c2ncccc21", "y"),
    ("O=C(O)CCC1CCC(c2cc(F)ccc2F)(S(=O)(=O)c2ccc(Cl)cc2)CC1 (stereo not drawn)", "y"),
    ("CO[C@H]1O[C@@H]2O[C@@]3(C)CC[C@@H]4[C@@H](C)CC[C@@H]([C@H]1C)[C@@]24OO3", "y"),
]

Then there is this compound:
Task: Recorded test outcome, item COC(=O)C1=C(C)NC(C)=C(C(=O)OC(C)C)C1c1cccc2nonc12 (stereo not drawn)
Output: n

###

- test summary: Viability qHTS for spleen associated tyrosine kinase inhibitor (SYKi) naive MV4-11 cells (AID 1963823); further: nearly all actives have a fitted effect of over 40% in size
- condition notes: MV4-11 AML viability, CellTiter-Glo luminescence, 72 h; series mostly up to 45 µM
Results filed as inconclusive are left out. Active and inactive are the calls of the source. Calls come from the whole dose curve; as a rule, active = well fitted cell-killing curve with a large enough effect; inconclusive = small, poorly fitted or top-dose-only effect, or effect the other way; inactive = no such curve, though single readings can be large or run the other way.
Returns: one label drawn from active, inactive

Task: Recorded test outcome, item CC(O)(C#Cc1ccc2c(c1)N(c1nc(N)ncc1Cl)CC2)c1nccs1 (stereo unspecified)
Output: active

Task: Queued: `O=C(/C=C/c1ccc(Cl)cc1)N1CCC2(CC1)CN(Cc1ccc(Cl)c(Cl)c1)C(=O)O2`
Output: active

Task: Queued: CCN(Cc1ccncc1)C(=O)C(CO)c1ccccc1 (stereo unspecified)
Output: inactive

Task: Queued: CC(=O)O[C@H]1CC2C(COC(=O)CC(C)C)=CO[C@@H](OC(=O)CC(C)C)C2[C@]12CO2 (stereo partly specified)
Output: active

Task: Queued: CC(C)CCNC(=O)c1ccc2c(c1)nc(Nc1n[nH]c3ccc(-c4ccccc4OC(F)(F)F)cc13)n2C1CCC(O)CC1 (stereo unspecified)
Output: active

Task: Queued: COC(=O)C(C)C1CCC2(C)C(=O)C=CC(C)(O)C2C1O (stereo unspecified)
Output: inactive

###

- test summary: Quantitative highthroughput screen to assess conditional lethalithy of P12 Ichikawa cells grown in RPMI1640 with dialyzed fetal bovine serum (RPMI+ds) (AID 1963880)
- condition notes: ATP luminescence, 48 h; P12-Ichikawa viability; series mostly up to 45.8 µM
Results filed as inconclusive are left out. The source made the active and inactive calls. Calls come from the whole dose curve; as a rule, active = well fitted cell-killing curve with a large enough effect; inconclusive = small, poorly fitted or top-dose-only effect; inactive = flat fitted curve, though single readings scatter.
Returns: one label drawn from active, inactive

# compound, qualitative label
measured = [
    ("N#Cc1cc(NC(=O)Nc2nnc(-c3ccncc3)s2)ccc1-c1cn[nH]c1", "inactive"),
]

Then there is this compound:
Task: Recorded test outcome, item Nc1ncnc2c1c(-c1cccc(OCc3ccccc3)c1)cn2C1CC(CN2CCC2)C1 (stereo not given)
Output: inactive

###

- test summary: Viability qHTS for spleen associated tyrosine kinase inhibitor (SYKi) drug resistant MV4-11 cells (AID 1963824); further: nearly all actives have a fitted effect of over 35% in size
- condition notes: SYKi-resistant MV4-11 viability, CellTiter-Glo, 72 h; series mostly up to 45 µM
Results filed as inconclusive are left out. Activity calls are given as the source filed them. Calls follow the shape of the dose curve; as a rule, active = well fitted cell-killing curve with a large enough effect; inconclusive = small, poorly fitted or top-dose-only effect, or effect the other way; inactive = no such curve, though single readings can be large or run the other way.
Returns: one label drawn from active, inactive

# compound, qualitative label
rows = [
    ("O=C(NCc1nc2ccccc2c(=O)n1-c1ccc(F)cc1)Nc1ccc(Cl)c(C(F)(F)F)c1", "active"),
    ("COc1cc(CCc2cc(NC(=O)c3ccc(N4C[C@@H](C)N[C@@H](C)C4)cc3)n[nH]2)cc(OC)c1", "active"),
    ("C[C@]12CCC(=O)C=C1CC[C@@H]1[C@@H]2[C@@H](O)C[C@@]2(C)[C@H]1CC[C@]2(O)C(=O)CO", "inactive"),
    ("COc1cc(Oc2ccnc3cc(OC)c(OC)cc23)ccc1NC(=O)NC(C)c1nccs1 (centres undefined)", "active"),
    ("COc1cc(C2c3cc(O)c(OC)cc3CC(CO)C2CO)ccc1O (centres undefined)", "inactive"),
    ("CC(C)NC[C@H](O)COc1ccc(CCOCC2CC2)cc1", "inactive"),
    ("CCS(=O)(=O)c1ccc(OC)c(C(=O)OC)c1", "inactive"),
    ("CCCNC(C)(C)COC(=O)c1ccccc1", "inactive"),
    ("C=CC(=O)Nc1cccc(Oc2nc(Nc3ccc(N4CCN(C)CC4)c(F)c3)nc3[nH]ccc23)c1", "active"),
    ("CN(C)c1ccc(Nc2c3ccc(NC(=O)CCN4CCCC4)cc3nc3cc(NC(=O)CCN4CCCC4)ccc23)cc1", "active"),
]

Task: Recorded test outcome, item Cc1ncc([N+](=O)[O-])n1CC(O)CN1CCOCC1 (centres undefined)
Output: inactive

Task: Queued: `C=C1C(=O)O[C@@H]2C[C@]3(C)[C@@H](CCC(C)=O)[C@@H]3C[C@H]12`
Output: active

Task: Queued: `C=C1C(=O)O[C@@H]2C[C@@]3(C)C[C@@H](O)C[C@H](C)C3=C[C@H]12`
Output: active

Task: Queued: `Oc1ccc(C2=Cc3ccc(O)cc3OC2)cc1`
Output: active

Task: Queued: CC1=C(CC(=O)O)c2cc(F)ccc2/C1=C\c1ccc(S(C)=O)cc1 (centres undefined)
Output: inactive
